The reported measurements were obtained from patent US9212182B2.

test target: UniProt Q15858
Sequence (Q15858 whole entry): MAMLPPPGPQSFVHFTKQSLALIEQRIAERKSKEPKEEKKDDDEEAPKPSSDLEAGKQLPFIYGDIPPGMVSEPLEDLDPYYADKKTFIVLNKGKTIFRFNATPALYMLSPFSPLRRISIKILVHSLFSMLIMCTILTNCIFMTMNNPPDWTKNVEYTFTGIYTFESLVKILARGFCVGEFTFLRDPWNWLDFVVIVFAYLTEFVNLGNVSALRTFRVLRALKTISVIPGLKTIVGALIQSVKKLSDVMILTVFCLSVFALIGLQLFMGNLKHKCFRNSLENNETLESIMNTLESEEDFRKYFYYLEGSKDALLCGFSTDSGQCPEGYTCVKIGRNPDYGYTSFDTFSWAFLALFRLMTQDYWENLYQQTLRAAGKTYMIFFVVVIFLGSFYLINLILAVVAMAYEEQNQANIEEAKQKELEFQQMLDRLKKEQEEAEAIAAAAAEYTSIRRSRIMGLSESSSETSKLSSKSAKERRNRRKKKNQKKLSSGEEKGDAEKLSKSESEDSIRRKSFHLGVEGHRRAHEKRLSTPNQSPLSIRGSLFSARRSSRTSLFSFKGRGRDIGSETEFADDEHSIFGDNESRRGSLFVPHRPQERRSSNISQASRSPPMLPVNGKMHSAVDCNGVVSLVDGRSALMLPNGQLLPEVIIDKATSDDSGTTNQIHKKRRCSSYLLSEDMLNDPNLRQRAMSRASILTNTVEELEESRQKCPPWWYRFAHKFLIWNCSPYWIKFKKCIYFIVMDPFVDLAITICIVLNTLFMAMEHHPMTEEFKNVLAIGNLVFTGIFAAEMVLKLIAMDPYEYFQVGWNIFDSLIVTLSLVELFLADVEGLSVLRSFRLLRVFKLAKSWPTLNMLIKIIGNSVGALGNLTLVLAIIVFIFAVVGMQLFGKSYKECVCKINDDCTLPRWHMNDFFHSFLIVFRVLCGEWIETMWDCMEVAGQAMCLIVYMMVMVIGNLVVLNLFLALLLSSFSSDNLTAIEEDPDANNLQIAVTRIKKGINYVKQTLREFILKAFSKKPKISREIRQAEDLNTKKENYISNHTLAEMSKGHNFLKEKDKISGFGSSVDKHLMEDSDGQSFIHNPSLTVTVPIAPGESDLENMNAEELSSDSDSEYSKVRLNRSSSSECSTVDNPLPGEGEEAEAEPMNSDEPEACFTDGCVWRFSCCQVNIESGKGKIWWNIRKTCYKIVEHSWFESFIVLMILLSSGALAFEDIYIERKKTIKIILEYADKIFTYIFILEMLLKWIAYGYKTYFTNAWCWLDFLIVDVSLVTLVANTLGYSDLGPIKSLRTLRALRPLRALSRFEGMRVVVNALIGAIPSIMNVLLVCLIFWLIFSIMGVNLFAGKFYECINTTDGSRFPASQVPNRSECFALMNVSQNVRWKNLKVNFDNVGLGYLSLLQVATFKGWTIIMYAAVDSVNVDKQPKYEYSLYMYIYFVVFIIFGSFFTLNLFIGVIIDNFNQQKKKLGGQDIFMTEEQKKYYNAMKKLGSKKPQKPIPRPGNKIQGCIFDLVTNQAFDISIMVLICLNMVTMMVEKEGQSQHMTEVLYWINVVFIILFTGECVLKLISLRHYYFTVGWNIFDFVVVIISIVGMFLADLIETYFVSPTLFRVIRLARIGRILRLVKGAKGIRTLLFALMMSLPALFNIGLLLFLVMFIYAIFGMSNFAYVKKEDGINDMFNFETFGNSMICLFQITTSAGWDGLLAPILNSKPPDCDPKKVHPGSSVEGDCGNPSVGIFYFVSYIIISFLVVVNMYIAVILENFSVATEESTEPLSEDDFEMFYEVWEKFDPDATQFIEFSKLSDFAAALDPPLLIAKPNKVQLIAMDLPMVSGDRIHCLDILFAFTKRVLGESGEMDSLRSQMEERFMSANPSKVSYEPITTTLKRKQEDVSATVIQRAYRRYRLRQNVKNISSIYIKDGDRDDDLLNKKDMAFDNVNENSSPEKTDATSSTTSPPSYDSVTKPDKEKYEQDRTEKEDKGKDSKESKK
test protocol: in-vitro Nav 1.7 PX (IC50)
Assay type: cell-based
recorded conditions: in-vitro Nav 1.7 PX data
parameter measured: pIC50
In textbook form, pIC50 equals minus log to base ten of the concentration in mol/L.

The following compounds have reported results that may help.
>>> result("COc1cc(-c2cccc(C(F)(F)F)c2)c(F)cc1-n1c(=O)ccc2cc(S(=O)(=O)Nc3cccnn3)ccc21")
7.74
>>> result("COc1cc(C)cc(-c2cc(OC)c(-n3c(=O)ccc4cc(S(=O)(=O)Nc5ccon5)ccc43)cc2F)c1")
8.00
>>> result("COc1ccc(-c2ccc(-n3c(=O)ccc4cc(S(=O)(=O)Nc5ccon5)ccc43)c(OC)c2)cc1Cl")
7.23

# ---- query compound ----
# input # lookup: pIC50 of COc1cc(-c2ccc(C)c(C)c2)ccc1-n1c(=O)ccc2cc(S(=O)(=O)Nc3ccon3)ccc21
# output 7.14
